Test system: SF-539
experiment.notes: NCI tumour cell line growth inhibition, 48 h
The source made the active and inactive calls. No stated cut-off is given here; in the data, active = GI50 up to about 1.1 µM and inactive = higher.
readout.label: GI50

Check out these entries, answers already filled in.
[[record]]
compound = "COc1c2cc(C(C)(C)C)cc1Cc1cccc(c1O)Cc1cc(C(C)(C)C)cc(c1OC)Cc1cccc(c1O)Cc1cc(C(C)(C)C)cc(c1OC)Cc1cccc(c1O)C2"
observed_value = "> 100 µM (inactive)"

[[record]]
compound = "CCOC(=O)C(C)OC(=O)c1ccc(C)cc1 (stereo not given)"
observed_value = "> 100 µM (inactive)"

[[record]]
compound = "CCOC(=O)/C(=C/c1ccc(OC)cc1)N(CC)CC"
observed_value = "> 100 µM (inactive)"

[[record]]
compound = "CC(NC(=O)N(C)C)NC(=O)N(C)C"
observed_value = "> 10 µM (inactive)"


Short answer for `C[C@]12CC[C@H](O)CC1=CC[C@@H]1[C@@H]2CC[C@]2(C)C(=N/N)/C(=N\O)C[C@@H]12` : GI50 was > 100 µM (inactive)

====

Tested on: NCI/ADR-RES
experiment.notes: NCI tumour cell line growth inhibition, 48 h
Active and inactive are the calls of the source. Cut-off read from the data, not from the text of the source: active = GI50 up to about 1.1 µM and inactive = higher.
Permitted responses: true = active, false = inactive

[[record]]
molecule = "COc1cccc2c3ccccc3c3nc[nH]c3c12"
label = "false"

[[record]]
molecule = "COc1ccccc1NC(=O)CC(=O)NN"
label = "false"

[[record]]
molecule = "COc1ccc(C(=O)O[C@H]2CC[C@@]3(C)[C@@H]4CC[C@H]5[C@]6(O)C[C@H](O)[C@@]7(O)[C@@H](CN8C[C@@H](C)CC[C@H]8[C@@]7(C)O)[C@]6(O)C[C@@]53OC24O)cc1OC"
label = "false"


// switching to the query molecule
I'd appreciate the recorded outcome for `Cc1nc2c(sc(=S)n2-c2ccccc2)c2nc3ncccc3n12` from this test.
false

====

Test system: IGROV-1
experiment.notes: NCI tumour cell line growth inhibition, 48 h
Active and inactive are the calls of the source. No stated cut-off is given here; in the data, active = GI50 up to about 1.1 µM and inactive = higher.
Permitted responses: t (active), f (inactive)

Consider the following illustrative entries.
[[record]]
molecule = "O=C(NCCCN1CCN(CCCNC(=O)Nc2cccc3ccccc23)CC1)Nc1cccc2ccccc12"
label = "f"

[[record]]
molecule = "N#CC1Sc2ccccc2-n2cccc21 (stereo unspecified)"
label = "f"

[[record]]
molecule = "C=C(C(=O)O)C1CCC(CC/C=C(\\C)CC/C=C(\\C)CCC=C(C)C)CO1 (stereo unspecified)"
label = "f"

[[record]]
molecule = "O=c1cnn(C/C=C/CP(=O)(O)O)c(=O)[nH]1"
label = "f"

[[record]]
molecule = "COc1ccc(-c2cc(-c3ccco3)c(C#N)c(=O)[nH]2)cc1"
label = "f"


I'd appreciate the recorded outcome for `COc1cc(N(CCC#N)CCC#N)ccc1/C=N\NC(=O)c1ccc(C)cc1` from this test.
f

I'd appreciate the recorded outcome for `COC(=O)[C@]1(CCC(C)=O)C(=O)C=CN([C@H](C)c2ccccc2)[C@@H]1Cc1ccc(OC)c(OCc2ccccc2)c1I` from this test.
f

I'd appreciate the recorded outcome for `N#CCCN(C(=O)Nc1ccc(NC(=O)N(CCC#N)c2ccccc2)cc1)c1ccccc1` from this test.
f

====

Test system: NCI-H460
experiment.notes: NCI tumour cell line growth inhibition, 48 h
Calls of active or inactive are those of the source. Cut-off read from the data, not from the text of the source: active = GI50 up to about 1.1 µM and inactive = higher.
readout.label: GI50

Check out these entries, answers already filled in.
[[record]]
compound = "Cc1nn2c(N)cc(=O)nc2nc1/C=C/c1ccc(N(C)C)cc1"
readout_label = "GI50"
observed_value = "6.89 µM (inactive)"

[[record]]
compound = "Oc1ccc(O)c(-n2cccn2)c1"
readout_label = "GI50"
observed_value = "> 100 µM (inactive)"

[[record]]
compound = "NC1CCC(N(CC(=O)O)CC(=O)O)C(N(CC(=O)O)CC(=O)O)C1 (stereo not given)"
readout_label = "GI50"
observed_value = "> 100 µM (inactive)"

[[record]]
compound = "Cc1c2ccncc2c(C)c2c1[nH]c1ccc(O)c(OCC(F)(F)F)c12"
readout_label = "GI50"
observed_value = "2.18 µM (inactive)"

[[record]]
compound = "Cn1c(=O)c2c(nc3n(C)c(=O)c4ccccc4n23)n(C)c1=O"
readout_label = "GI50"
observed_value = "6.93 µM (inactive)"


// input: 5 compounds below; output: GI50 for each
1. COc1cc(CNc2ccc(SC)cc2)cc(OC)c1OC
2. C1CN2CCNCCN(CCN1)CC2
3. Cc1ccc2cc3c(ccc4ccccc43)c3c2c1CC3 [3-METHYLCHOLANTHRENE]
4. CCCCCCCCCCc1c2nc(c(CCCCCCCCCC)c3ccc([nH]3)c(CCCCCCCCCC)c3nc(c(CCCCCCCCCC)c4ccc1[nH]4)C=C3)C=C2
5. N#CC(/C(=N/NC(=O)C(=O)NN)C(=O)Nc1nc([N+](=O)[O-])cs1)c1ccc(Cl)cc1 (stereo not given)

["7.1 µM (inactive)", "> 100 µM (inactive)", "> 100 µM (inactive)", "> 100 µM (inactive)", "> 100 µM (inactive)"]

// input: 7 compounds below; output: GI50 for each
1. CC(=O)O[C@H]1CCN2C(=O)C=CC(OCc3ccccc3)C12 (stereo not given in full)
2. CC(C)[Si](CC1=CCCCC12C(=O)N(COCC[Si](C)(C)C)c1ccccc12)(C(C)C)C(C)C (stereo not given)
3. CCCCCCCCSC(SCCCCCCCC)=C1C(=O)N(c2ccccc2)N=C1C
4. O=C(c1ccc2c3c(ccc(C(=O)C(F)(F)F)c13)CC2)C(F)(F)F
5. CNC(=S)/C(C#N)=C(\N)N1CCCC1
6. COc1cc(S(=O)(=O)Nc2ccc(-c3csc(N4C(=O)C(Cl)C4c4ccccc4)n3)cc2)ccc1Cl (stereo not given)
7. CCOC(=O)c1nc2ccc(C(F)(F)F)cc2nc1Oc1cc(OC)c(OC)c(OC)c1

["> 100 µM (inactive)", "82.2 µM (inactive)", "40.3 µM (inactive)", "69.8 µM (inactive)", "> 100 µM (inactive)", "< 0.01 µM (active)", "42.5 µM (inactive)"]

// input: 2 compounds below; output: GI50 for each
1. COc1c(N2CCCCC2)c2c(=O)c3ccccc3oc2c2cc(C)oc12
2. CCCc1cc(=O)oc2c(C=O)c(O)cc(O)c12

["7.78 µM (inactive)", "24.8 µM (inactive)"]

Short answer for COc1ccc(C(=O)O[C@H]2CC[C@@]3(C)[C@@H]4CC[C@H]5[C@]6(O)C[C@H](O)[C@@]7(O)[C@@H](CN8C[C@@H](C)CC[C@H]8[C@@]7(C)O)[C@]6(O)C[C@@]53OC24O)cc1OC [VERATRIDINE] : GI50 was 75.2 µM (inactive)
